meta.source: ChEMBL document CHEMBL3352709

Target: D(4) dopamine receptor (Homo sapiens, UniProt P21917)
Sequence (P21917 whole entry): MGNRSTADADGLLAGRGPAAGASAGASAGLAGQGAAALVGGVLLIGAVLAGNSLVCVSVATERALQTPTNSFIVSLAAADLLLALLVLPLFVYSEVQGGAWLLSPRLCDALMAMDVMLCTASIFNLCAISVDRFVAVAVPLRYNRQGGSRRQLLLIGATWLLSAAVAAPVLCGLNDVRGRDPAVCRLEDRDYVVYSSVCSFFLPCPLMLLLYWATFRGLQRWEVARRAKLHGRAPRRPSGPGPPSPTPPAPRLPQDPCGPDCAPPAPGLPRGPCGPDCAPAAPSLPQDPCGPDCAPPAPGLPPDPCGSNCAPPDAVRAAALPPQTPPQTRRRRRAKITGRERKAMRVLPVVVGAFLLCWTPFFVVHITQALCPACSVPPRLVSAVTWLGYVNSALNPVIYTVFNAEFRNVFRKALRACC
Lab note: cut-off is 0.1 µM. Strictly less in Ki is MET. Exactly 0.1 µM or more is NOT MET.

input: API: query returns whether the compound falls strictly under 0.1 µM in Ki. Query: "CN(C)CCC(=O)OC1(c2ccc(Cl)cc2)CCN(CCCC(=O)c2ccc(F)cc2)CC1"
output: MET

input: API: query returns whether the compound falls strictly under 0.1 µM in Ki. Query: "O=C(CCC(=O)N1CCC(O)(c2ccc(Cl)cc2)CC1)c1ccc(F)cc1"
output: NOT MET

input: API: query returns whether the compound falls strictly under 0.1 µM in Ki. Query: "CCC(=O)OC1(c2ccc(Cl)cc2)CCN(CCCC(=O)c2ccc(F)cc2)CC1"
output: MET

input: API: query returns whether the compound falls strictly under 0.1 µM in Ki. Query: "O=C(CCCCC(=O)OC1(c2ccc(Cl)cc2)CCN(CCCC(=O)c2ccc(F)cc2)CC1)OC1(c2ccc(Cl)cc2)CCN(CCCC(=O)c2ccc(F)cc2)CC1"
output: MET

input: API: query returns whether the compound falls strictly under 0.1 µM in Ki. Query: "O=C(CCN1CCN(CCC(=O)OC2(c3ccc(Cl)cc3)CCN(CCCC(=O)c3ccc(F)cc3)CC2)CC1)OC1(c2ccc(Cl)cc2)CCN(CCCC(=O)c2ccc(F)cc2)CC1"
output: MET

input: API: query returns whether the compound falls strictly under 0.1 µM in Ki. Query: "O=C(CCCCCCCCCCCCCCCCCCC(=O)OC1(c2ccc(Cl)cc2)CCN(CCCC(=O)c2ccc(F)cc2)CC1)OC1(c2ccc(Cl)cc2)CCN(CCCC(=O)c2ccc(F)cc2)CC1"
output: NOT MET

input: API: query returns whether the compound falls strictly under 0.1 µM in Ki. Query: "O=C(CCc1cn(CCOCCOCCOCCOCCn2cc(CCC(=O)OC3(c4ccc(Cl)cc4)CCN(CCCC(=O)c4ccc(F)cc4)CC3)nn2)nn1)OC1(c2ccc(Cl)cc2)CCN(CCCC(=O)c2ccc(F)cc2)CC1"
output: MET

input: API: query returns whether the compound falls strictly under 0.1 µM in Ki. Query: "Cc1ccc(C(=O)OC2(c3ccc(Cl)cc3)CCN(CCCC(=O)c3ccc(F)cc3)CC2)cc1"
output: NOT MET

input: API: query returns whether the compound falls strictly under 0.1 µM in Ki. Query: "O=C(CCCCCCC(=O)OC1(c2ccc(Cl)cc2)CCN(CCCC(=O)c2ccc(F)cc2)CC1)OC1(c2ccc(Cl)cc2)CCN(CCCC(=O)c2ccc(F)cc2)CC1"
output: NOT MET

input: API: query returns whether the compound falls strictly under 0.1 µM in Ki. Query: CCCCCCCCCC(=O)OC1(c2ccc(Cl)cc2)CCN(CCCC(=O)c2ccc(F)cc2)CC1 [HALOPERIDOL DECANOATE]
output: MET

input: API: query returns whether the compound falls strictly under 0.1 µM in Ki. Query: "CC(=O)OC1(c2ccc(Cl)cc2)CCN(CCCC(=O)c2ccc(F)cc2)CC1"
output: MET

input: API: query returns whether the compound falls strictly under 0.1 µM in Ki. Query: "O=C(CCCCCCCC(=O)OC1(c2ccc(Cl)cc2)CCN(CCCC(=O)c2ccc(F)cc2)CC1)OC1(c2ccc(Cl)cc2)CCN(CCCC(=O)c2ccc(F)cc2)CC1"
output: NOT MET

input: API: query returns whether the compound falls strictly under 0.1 µM in Ki. Query: "O=C(CCC(=O)OC1(c2ccc(Cl)cc2)CCN(CCCC(=O)c2ccc(F)cc2)CC1)OC1(c2ccc(Cl)cc2)CCN(CCCC(=O)c2ccc(F)cc2)CC1"
output: MET

input: API: query returns whether the compound falls strictly under 0.1 µM in Ki. Query: "O=C(CCCCCCCCC(=O)OC1(c2ccc(Cl)cc2)CCN(CCCC(=O)c2ccc(F)cc2)CC1)OC1(c2ccc(Cl)cc2)CCN(CCCC(=O)c2ccc(F)cc2)CC1"
output: NOT MET

###

Provide the recorded Ki for the entries that follow.
Quick note: give the figure in nM, leave out the unit.

input: # returns recorded Ki (system: D(3) dopamine receptor (Homo sapiens, UniProt P35462)) for "CN(C)CCC(=O)OC1(c2ccc(Cl)cc2)CCN(CCCC(=O)c2ccc(F)cc2)CC1"
Sequence (P35462 whole entry): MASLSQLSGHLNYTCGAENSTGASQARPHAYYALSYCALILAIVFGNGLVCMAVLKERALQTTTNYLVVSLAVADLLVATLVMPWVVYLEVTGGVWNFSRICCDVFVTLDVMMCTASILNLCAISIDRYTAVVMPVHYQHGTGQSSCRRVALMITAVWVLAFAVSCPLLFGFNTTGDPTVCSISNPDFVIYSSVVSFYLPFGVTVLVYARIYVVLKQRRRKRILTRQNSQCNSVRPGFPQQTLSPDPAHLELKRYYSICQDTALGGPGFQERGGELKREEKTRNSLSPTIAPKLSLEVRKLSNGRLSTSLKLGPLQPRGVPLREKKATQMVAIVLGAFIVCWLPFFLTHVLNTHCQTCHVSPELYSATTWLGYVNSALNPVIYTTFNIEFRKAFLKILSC
output: 30

input: # returns recorded Ki (system: D(3) dopamine receptor (Homo sapiens, UniProt P35462)) for "CCC(=O)OC1(c2ccc(Cl)cc2)CCN(CCCC(=O)c2ccc(F)cc2)CC1"
output: 41

input: # returns recorded Ki (system: D(3) dopamine receptor (Homo sapiens, UniProt P35462)) for "O=C(CCCCCCC(=O)OC1(c2ccc(Cl)cc2)CCN(CCCC(=O)c2ccc(F)cc2)CC1)OC1(c2ccc(Cl)cc2)CCN(CCCC(=O)c2ccc(F)cc2)CC1"
output: 6.4

input: # returns recorded Ki (system: D(3) dopamine receptor (Homo sapiens, UniProt P35462)) for "O=C(CCC(=O)N1CCC(O)(c2ccc(Cl)cc2)CC1)c1ccc(F)cc1"
output: 1700

input: # returns recorded Ki (system: D(3) dopamine receptor (Homo sapiens, UniProt P35462)) for "O=C(CCCCCCCCC(=O)OC1(c2ccc(Cl)cc2)CCN(CCCC(=O)c2ccc(F)cc2)CC1)OC1(c2ccc(Cl)cc2)CCN(CCCC(=O)c2ccc(F)cc2)CC1"
output: 39

input: # returns recorded Ki (system: D(3) dopamine receptor (Homo sapiens, UniProt P35462)) for "CC(=O)OC1(c2ccc(Cl)cc2)CCN(CCCC(=O)c2ccc(F)cc2)CC1"
output: 56

input: # returns recorded Ki (system: D(3) dopamine receptor (Homo sapiens, UniProt P35462)) for "Cc1ccc(C(=O)OC2(c3ccc(Cl)cc3)CCN(CCCC(=O)c3ccc(F)cc3)CC2)cc1"
output: 270

input: # returns recorded Ki (system: D(3) dopamine receptor (Homo sapiens, UniProt P35462)) for CCCCCCCCCC(=O)OC1(c2ccc(Cl)cc2)CCN(CCCC(=O)c2ccc(F)cc2)CC1 [HALOPERIDOL DECANOATE]
output: 3.5

input: # returns recorded Ki (system: D(3) dopamine receptor (Homo sapiens, UniProt P35462)) for "O=C(CCCCCCCC(=O)OC1(c2ccc(Cl)cc2)CCN(CCCC(=O)c2ccc(F)cc2)CC1)OC1(c2ccc(Cl)cc2)CCN(CCCC(=O)c2ccc(F)cc2)CC1"
output: 9.1

input: # returns recorded Ki (system: D(3) dopamine receptor (Homo sapiens, UniProt P35462)) for "O=C(CCCCCCCCCCCCCCCCC(=O)OC1(c2ccc(Cl)cc2)CCN(CCCC(=O)c2ccc(F)cc2)CC1)OC1(c2ccc(Cl)cc2)CCN(CCCC(=O)c2ccc(F)cc2)CC1"
output: 380

input: # returns recorded Ki (system: D(3) dopamine receptor (Homo sapiens, UniProt P35462)) for "O=C(CCc1cn(CCOCCOCCOCCOCCn2cc(CCC(=O)OC3(c4ccc(Cl)cc4)CCN(CCCC(=O)c4ccc(F)cc4)CC3)nn2)nn1)OC1(c2ccc(Cl)cc2)CCN(CCCC(=O)c2ccc(F)cc2)CC1"
output: 19

input: # returns recorded Ki (system: D(3) dopamine receptor (Homo sapiens, UniProt P35462)) for "O=C(CCCC(=O)OC1(c2ccc(Cl)cc2)CCN(CCCC(=O)c2ccc(F)cc2)CC1)OC1(c2ccc(Cl)cc2)CCN(CCCC(=O)c2ccc(F)cc2)CC1"
output: 31

###

Biological target: D(2) dopamine receptor (Homo sapiens, UniProt P14416)
Sequence (P14416 whole entry): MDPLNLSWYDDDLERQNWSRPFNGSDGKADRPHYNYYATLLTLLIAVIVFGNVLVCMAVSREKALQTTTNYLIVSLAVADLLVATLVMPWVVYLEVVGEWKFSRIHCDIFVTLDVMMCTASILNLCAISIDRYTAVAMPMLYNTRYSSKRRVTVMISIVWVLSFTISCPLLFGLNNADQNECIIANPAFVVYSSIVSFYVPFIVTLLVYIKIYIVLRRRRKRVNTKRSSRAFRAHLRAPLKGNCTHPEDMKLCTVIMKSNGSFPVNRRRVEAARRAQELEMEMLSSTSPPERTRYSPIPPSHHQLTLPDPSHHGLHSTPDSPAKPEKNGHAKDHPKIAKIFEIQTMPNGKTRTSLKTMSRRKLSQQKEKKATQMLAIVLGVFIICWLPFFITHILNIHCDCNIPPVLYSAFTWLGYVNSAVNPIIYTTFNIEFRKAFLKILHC
Test: Displacement of [3H]spiperone from human D2short receptor stably expressed in CHO cell membranes by competitive binding assay
Provide the recorded pKi for the entries that follow.
Scale note: pKi = -log10(concentration in M).

input: Return reported pKi; argument: "O=C(CCCCCCCCC(=O)OC1(c2ccc(Cl)cc2)CCN(CCCC(=O)c2ccc(F)cc2)CC1)OC1(c2ccc(Cl)cc2)CCN(CCCC(=O)c2ccc(F)cc2)CC1"
output: 7.51

input: Return reported pKi; argument: "O=C(CCc1cn(CCOCCOCCOCCOCCn2cc(CCC(=O)OC3(c4ccc(Cl)cc4)CCN(CCCC(=O)c4ccc(F)cc4)CC3)nn2)nn1)OC1(c2ccc(Cl)cc2)CCN(CCCC(=O)c2ccc(F)cc2)CC1"
output: 8.42

input: Return reported pKi; argument: "O=C(CCCCCCCC(=O)OC1(c2ccc(Cl)cc2)CCN(CCCC(=O)c2ccc(F)cc2)CC1)OC1(c2ccc(Cl)cc2)CCN(CCCC(=O)c2ccc(F)cc2)CC1"
output: 8.19

input: Return reported pKi; argument: "O=C(CCc1cn(CCCCCCCCn2cc(CCC(=O)OC3(c4ccc(Cl)cc4)CCN(CCCC(=O)c4ccc(F)cc4)CC3)nn2)nn1)OC1(c2ccc(Cl)cc2)CCN(CCCC(=O)c2ccc(F)cc2)CC1"
output: 8.80

input: Return reported pKi; argument: "O=C(CCCCCCCCCCCCCCCCC(=O)OC1(c2ccc(Cl)cc2)CCN(CCCC(=O)c2ccc(F)cc2)CC1)OC1(c2ccc(Cl)cc2)CCN(CCCC(=O)c2ccc(F)cc2)CC1"
output: 6.82

input: Return reported pKi; argument: "CCC(=O)OC1(c2ccc(Cl)cc2)CCN(CCCC(=O)c2ccc(F)cc2)CC1"
output: 8.80

input: Return reported pKi; argument: "O=C(CCCCCCCCCCCCCCC(=O)OC1(c2ccc(Cl)cc2)CCN(CCCC(=O)c2ccc(F)cc2)CC1)OC1(c2ccc(Cl)cc2)CCN(CCCC(=O)c2ccc(F)cc2)CC1"
output: 6.55

input: Return reported pKi; argument: "CN(CCC(=O)OC1(c2ccc(Cl)cc2)CCN(CCCC(=O)c2ccc(F)cc2)CC1)CCN(C)CCC(=O)OC1(c2ccc(Cl)cc2)CCN(CCCC(=O)c2ccc(F)cc2)CC1"
output: 8.66
